measured on: CYP2D6 (Homo sapiens, UniProt P10635)
Sequence (P10635 whole entry): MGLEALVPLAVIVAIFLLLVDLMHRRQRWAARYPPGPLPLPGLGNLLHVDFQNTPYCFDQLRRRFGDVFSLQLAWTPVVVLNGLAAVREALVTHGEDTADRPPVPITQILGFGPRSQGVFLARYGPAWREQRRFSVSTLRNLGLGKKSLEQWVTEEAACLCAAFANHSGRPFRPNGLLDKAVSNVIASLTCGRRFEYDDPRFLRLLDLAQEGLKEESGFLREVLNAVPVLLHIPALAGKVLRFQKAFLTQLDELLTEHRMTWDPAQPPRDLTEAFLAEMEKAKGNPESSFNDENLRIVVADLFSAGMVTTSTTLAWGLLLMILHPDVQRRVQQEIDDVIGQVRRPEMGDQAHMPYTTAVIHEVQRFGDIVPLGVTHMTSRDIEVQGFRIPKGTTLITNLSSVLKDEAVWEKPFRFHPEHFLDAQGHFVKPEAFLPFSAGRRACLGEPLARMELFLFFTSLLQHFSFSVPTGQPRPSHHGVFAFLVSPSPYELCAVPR
assay info: CYP inhibition in human liver microsomes
condition details: human, human liver microsomes, probe bufuralol

{"compound": "CCc1cc(Cl)c(OC)c(N2CCN(CC(O)CCNC(=O)c3cc4ccccc4[nH]3)CC2)c1 (stereo not shown) [R-VK4-116]", "measured on": "CYP2D6 (Homo sapiens, UniProt P10635)", "activity at 20 min, 0.3 µM": "86.1%"}

====

measured on: CYP3A4 (Homo sapiens)
Sequence (P08684 2-503): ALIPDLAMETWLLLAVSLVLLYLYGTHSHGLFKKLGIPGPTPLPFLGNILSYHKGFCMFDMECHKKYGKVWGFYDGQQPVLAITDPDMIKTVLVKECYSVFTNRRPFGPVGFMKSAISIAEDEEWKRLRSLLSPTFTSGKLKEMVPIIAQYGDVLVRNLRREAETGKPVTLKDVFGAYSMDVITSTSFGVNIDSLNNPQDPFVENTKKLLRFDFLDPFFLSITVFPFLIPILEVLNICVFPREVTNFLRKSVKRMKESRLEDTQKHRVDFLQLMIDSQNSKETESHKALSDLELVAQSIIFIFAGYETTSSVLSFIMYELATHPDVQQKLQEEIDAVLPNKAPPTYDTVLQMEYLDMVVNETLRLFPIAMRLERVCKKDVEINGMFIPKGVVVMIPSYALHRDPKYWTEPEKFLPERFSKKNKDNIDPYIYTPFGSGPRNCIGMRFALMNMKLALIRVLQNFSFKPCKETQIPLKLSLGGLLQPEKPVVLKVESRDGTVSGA
assay info: in vitro
condition details: microsomes, CYP activity (% of Control) 3A4 (Midazolam)
readout: activity at 20 min, 0.3 µM

{"compound": "CCc1cc(Cl)c(OC)c(N2CCN(CC(O)CCNC(=O)c3cc4ccccc4[nH]3)CC2)c1 (stereo not shown)", "endpoint result": "93.9%"}

====

measured on: CYP2D6 (Homo sapiens)
assay info: CYP inhibition in human liver microsomes
condition details: human, human liver microsomes, probe bufuralol
readout: activity at 20 min, 2 µM (%)

{"compound": "C=C[C@H]1C[N@@]2CC[C@H]1C[C@@H]2[C@@H](O)c1ccnc2ccc(OC)cc12 [quinidine, reference compound]", "endpoint result": 17.3}

====

assay info: Metabolic stability in liver microsomes
condition details: human, heat-inactivated liver microsomes, pH 7.4

{"molecule": "CCc1cc(Cl)c(OC)c(N2CCN(CC(O)CCNC(=O)c3cc4ccccc4[nH]3)CC2)c1 (stereo not shown) [R-VK4-116]", "endpoint unit": "%", "remaining at 0 h, 1 μM": 100}

====

assay info: Metabolic stability in liver microsomes
condition details: dog, liver microsomes, pH 7.4

{"compound": "CCc1cc(Cl)c(OC)c(N2CCN(CC(O)CCNC(=O)c3cc4ccccc4[nH]3)CC2)c1 (stereo not shown)", "remaining at 2 h, 10 μM (%)": 49.9}

====

measured on: HPK1 (Homo sapiens, UniProt Q92918)
Sequence (Q92918 whole entry): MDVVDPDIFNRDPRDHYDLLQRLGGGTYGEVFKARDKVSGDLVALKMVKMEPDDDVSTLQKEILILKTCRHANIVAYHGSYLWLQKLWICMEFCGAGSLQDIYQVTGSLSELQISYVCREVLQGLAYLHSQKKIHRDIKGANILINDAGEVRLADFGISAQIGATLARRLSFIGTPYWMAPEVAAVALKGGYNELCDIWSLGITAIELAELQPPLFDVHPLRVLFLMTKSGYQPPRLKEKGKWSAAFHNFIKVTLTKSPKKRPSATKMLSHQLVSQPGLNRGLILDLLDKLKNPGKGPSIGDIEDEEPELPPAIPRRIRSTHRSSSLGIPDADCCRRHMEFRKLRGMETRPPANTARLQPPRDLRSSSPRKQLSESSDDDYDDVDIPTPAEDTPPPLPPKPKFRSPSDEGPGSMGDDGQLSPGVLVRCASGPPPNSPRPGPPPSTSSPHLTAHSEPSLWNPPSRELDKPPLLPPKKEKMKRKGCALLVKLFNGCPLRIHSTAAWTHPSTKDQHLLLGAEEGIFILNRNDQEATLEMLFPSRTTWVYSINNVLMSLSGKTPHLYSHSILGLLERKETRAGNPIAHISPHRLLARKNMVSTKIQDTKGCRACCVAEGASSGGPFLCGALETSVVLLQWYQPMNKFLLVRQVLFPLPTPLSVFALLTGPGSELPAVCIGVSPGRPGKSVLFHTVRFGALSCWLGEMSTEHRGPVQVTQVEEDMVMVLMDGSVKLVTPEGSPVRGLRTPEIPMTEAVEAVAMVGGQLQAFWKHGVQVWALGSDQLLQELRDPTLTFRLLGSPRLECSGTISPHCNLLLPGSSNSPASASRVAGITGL
pKd: −log10 of the molar value.

{"compound": "CCc1cc(Cl)c(OC)c(N2CCN(CC(O)CCNC(=O)c3cc4ccccc4[nH]3)CC2)c1 (stereo not shown) [R-VK4-116]", "pKd": "< 5.00"}

====

measured on: UniProtKB P33261
assay info: CYP inhibition in human liver microsomes
condition details: human, human liver microsomes, probe mephenytoin

{"compound": "CCc1cc(Cl)c(OC)c(N2CCN(CC(O)CCNC(=O)c3cc4ccccc4[nH]3)CC2)c1 (stereo not shown)", "activity at 20 min, 30 µM / %": 96.7}

====

assay info: Metabolic stability in hepatocyte
condition details: Sprague Dawley, rat, hepatocytes in suspension
readout: hepatocyte CLint at 0.5 μM (µL/min/1e6 cells)

{"compound": "CCc1cc(Cl)c(OC)c(N2CCN(CC(O)CCNC(=O)c3cc4ccccc4[nH]3)CC2)c1 (stereo not shown) [R-VK4-116]", "endpoint result": 16}

====

measured on: BCRP (Homo sapiens, UniProt Q9UNQ0)
Construct: expressed in transfected cells; host or cells: MDCK-II cells
Sequence (Q9UNQ0 whole entry): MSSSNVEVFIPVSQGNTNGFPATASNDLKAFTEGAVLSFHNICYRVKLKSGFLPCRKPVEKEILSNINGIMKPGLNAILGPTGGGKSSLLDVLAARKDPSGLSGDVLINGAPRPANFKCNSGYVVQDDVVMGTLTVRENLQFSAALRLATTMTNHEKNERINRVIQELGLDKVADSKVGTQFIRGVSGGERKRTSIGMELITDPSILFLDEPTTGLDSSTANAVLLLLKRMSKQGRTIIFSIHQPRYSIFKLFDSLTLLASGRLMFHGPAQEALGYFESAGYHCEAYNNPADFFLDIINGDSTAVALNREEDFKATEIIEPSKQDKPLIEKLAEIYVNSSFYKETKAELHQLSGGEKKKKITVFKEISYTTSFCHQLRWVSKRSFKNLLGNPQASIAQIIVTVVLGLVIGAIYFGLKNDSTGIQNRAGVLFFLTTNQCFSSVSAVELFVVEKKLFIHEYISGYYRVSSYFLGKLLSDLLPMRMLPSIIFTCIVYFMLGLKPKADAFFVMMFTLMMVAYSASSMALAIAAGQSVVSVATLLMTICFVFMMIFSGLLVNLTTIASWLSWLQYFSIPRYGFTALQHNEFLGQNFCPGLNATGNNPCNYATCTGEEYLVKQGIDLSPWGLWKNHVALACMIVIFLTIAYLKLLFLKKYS
assay info: Transporter mediated assay (substrate/inhibitor), MDCK-II cells
Type: in vitro ADME
condition details: BCRP, substrate test, 1 µM

{"compound": "CCc1cc(Cl)c(OC)c(N2CCN(CC(O)CCNC(=O)c3cc4ccccc4[nH]3)CC2)c1 (stereo not shown)", "Papp A→B at 1 µM": "< 0.2 ×10⁻⁶ cm/s"}

====

assay info: Metabolic stability in liver microsomes
condition details: human, liver microsomes, pH 7.4
readout: remaining at 0.5 h, 1 μM

{"molecule": "CCc1cc(Cl)c(OC)c(N2CCN(CC(O)CCNC(=O)c3cc4ccccc4[nH]3)CC2)c1 (stereo not shown)", "readout": "remaining at 0.5 h, 1 μM", "endpoint result": "41.1%"}

====

measured on: CYP1A2 (Homo sapiens, UniProt P05177)
Sequence (P05177 1-516): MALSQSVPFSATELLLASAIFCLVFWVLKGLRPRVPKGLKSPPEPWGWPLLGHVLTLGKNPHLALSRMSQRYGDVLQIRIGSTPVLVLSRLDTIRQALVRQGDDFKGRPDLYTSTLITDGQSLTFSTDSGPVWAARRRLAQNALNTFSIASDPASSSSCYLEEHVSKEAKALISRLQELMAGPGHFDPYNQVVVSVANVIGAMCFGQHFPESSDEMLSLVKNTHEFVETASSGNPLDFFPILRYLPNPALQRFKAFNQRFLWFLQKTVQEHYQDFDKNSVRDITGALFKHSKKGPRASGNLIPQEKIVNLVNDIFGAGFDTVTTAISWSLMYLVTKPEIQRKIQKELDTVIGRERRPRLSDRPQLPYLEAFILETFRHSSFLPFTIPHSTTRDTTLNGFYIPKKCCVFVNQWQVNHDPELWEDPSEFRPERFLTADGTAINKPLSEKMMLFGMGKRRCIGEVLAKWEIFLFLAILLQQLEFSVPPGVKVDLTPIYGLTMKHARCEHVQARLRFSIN
assay info: CYP inhibition in human liver microsomes
condition details: human, human liver microsomes, probe phenacetin

{"compound": "C=C[C@H]1C[N@@]2CC[C@H]1C[C@@H]2[C@@H](O)c1ccnc2ccc(OC)cc12 [quinidine, reference compound]", "activity at 20 min, 2 µM, %": 88.3}

====

Test system: CYP2B6 mRNA
assay info: CYP induction, mRNA, primary cultured human hepatocytes
condition details: Fold Induction (CYP2B6 mRNA expression), hepatocyte Lot 336, 1000 µM
readout: fold induction at 48 h, 1000 µM

{"chemical string": "CCC1(c2ccccc2)C(=O)NC(=O)NC1=O", "readout": "fold induction at 48 h, 1000 µM", "endpoint result": 11}

====

assay info: Metabolic stability in liver microsomes
condition details: human, heat-inactivated liver microsomes, pH 7.4

{"compound": "CCc1cc(Cl)c(OC)c(N2CCN(CC(O)CCNC(=O)c3cc4ccccc4[nH]3)CC2)c1 (stereo not shown)", "remaining at 0 h, 10 μM": "100%"}

====

assay info: Metabolic stability in hepatocyte
condition details: human, hepatocytes

{"compound": "Cc1ncc2n1-c1ccc(Cl)cc1C(c1ccccc1F)=NC2 [Midazolam, reference compound]", "endpoint unit": "h", "half-life at 10 μM": 4.45}

====

Test system: CYP1A2 mRNA
assay info: CYP induction, mRNA, primary cultured human hepatocytes
Type: in vitro ADME
condition details: Lot 336, 10 μM, read-out: CYP1A2 mRNA Fold Induction (fold of vehicle control)

{"compound": "CCc1cc(Cl)c(OC)c(N2CCN(CC(O)CCNC(=O)c3cc4ccccc4[nH]3)CC2)c1 (stereo not shown)", "fold induction at 48 h, 10 µM": 1.9}

====

measured on: CYP3A4 (Homo sapiens)
assay info: in vitro
condition details: microsomes, CYP activity (% of Control) 3A4 (Midazolam)
readout: activity at 20 min, 100 µM

{"compound": "CCc1cc(Cl)c(OC)c(N2CCN(CC(O)CCNC(=O)c3cc4ccccc4[nH]3)CC2)c1 (stereo not shown)", "endpoint result": "96.9%"}

====

assay info: Plasma protein binding, Sephadex G-25 gel filtration
Format: in vitro ADME
condition details: dog, plasma, nominal 0.5 μM, read-out: % Bound, Mean ± SD (converted)
readout: fraction unbound at 2 h, 0.5 μM

{"compound": "CCc1cc(Cl)c(OC)c(N2CCN(CC(O)CCNC(=O)c3cc4ccccc4[nH]3)CC2)c1 (stereo not shown)", "readout": "fraction unbound at 2 h, 0.5 μM", "endpoint result": 0.164}

====

System: CYP1A2 mRNA
assay info: CYP induction, mRNA, primary cultured human hepatocytes
Assay type: in vitro ADME
condition details: Lot 348B, 1 μM, read-out: CYP1A2 mRNA Fold Induction (fold of vehicle control)
readout: fold induction at 48 h, 1 µM

{"compound": "CCc1cc(Cl)c(OC)c(N2CCN(CC(O)CCNC(=O)c3cc4ccccc4[nH]3)CC2)c1 (stereo not shown)", "readout": "fold induction at 48 h, 1 µM", "endpoint result": 1.3}

====

assay info: Metabolic stability in hepatocyte
condition details: human, hepatocytes
readout: hepatocyte CLint at 10 μM (µL/min/1e6 cells)

{"compound": "Cc1ncc2n1-c1ccc(Cl)cc1C(c1ccccc1F)=NC2 [Midazolam, reference compound]", "endpoint result": 5.2}

====

measured on: CYP2D6 (Homo sapiens)
assay info: CYP inhibition in human liver microsomes
condition details: human, human liver microsomes, probe bufuralol
readout: activity at 20 min, 1 µM (%)

{"compound": "CCc1cc(Cl)c(OC)c(N2CCN(CC(O)CCNC(=O)c3cc4ccccc4[nH]3)CC2)c1 (stereo not shown) [R-VK4-116]", "endpoint result": 84.3}

====

measured on: CYP2C19 (Homo sapiens)
Sequence (P33261 whole entry): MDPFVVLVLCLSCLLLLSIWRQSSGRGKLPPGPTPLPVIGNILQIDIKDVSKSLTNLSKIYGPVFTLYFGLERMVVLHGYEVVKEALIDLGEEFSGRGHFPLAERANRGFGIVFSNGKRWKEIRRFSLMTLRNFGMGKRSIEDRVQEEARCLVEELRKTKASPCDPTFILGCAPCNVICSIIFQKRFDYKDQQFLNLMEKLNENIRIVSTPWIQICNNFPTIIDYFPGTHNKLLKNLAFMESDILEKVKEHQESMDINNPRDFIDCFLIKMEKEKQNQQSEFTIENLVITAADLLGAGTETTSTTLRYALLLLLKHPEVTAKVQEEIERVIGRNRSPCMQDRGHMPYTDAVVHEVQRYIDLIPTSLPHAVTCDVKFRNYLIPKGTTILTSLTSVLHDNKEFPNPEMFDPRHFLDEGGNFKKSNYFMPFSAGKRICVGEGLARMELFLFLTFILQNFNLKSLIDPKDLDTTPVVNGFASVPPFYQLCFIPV
assay info: CYP inhibition in human liver microsomes
condition details: human, microsomes

{"chemical string": "C=C(C)[C@@H]1CCC2=CC(=O)C[C@@H](C)[C@]2(C)C1", "activity at 20 min, 30 µM": "57.3%"}

====

measured on: CYP2B6 (Homo sapiens, UniProt P20813)
Sequence (P20813 whole entry): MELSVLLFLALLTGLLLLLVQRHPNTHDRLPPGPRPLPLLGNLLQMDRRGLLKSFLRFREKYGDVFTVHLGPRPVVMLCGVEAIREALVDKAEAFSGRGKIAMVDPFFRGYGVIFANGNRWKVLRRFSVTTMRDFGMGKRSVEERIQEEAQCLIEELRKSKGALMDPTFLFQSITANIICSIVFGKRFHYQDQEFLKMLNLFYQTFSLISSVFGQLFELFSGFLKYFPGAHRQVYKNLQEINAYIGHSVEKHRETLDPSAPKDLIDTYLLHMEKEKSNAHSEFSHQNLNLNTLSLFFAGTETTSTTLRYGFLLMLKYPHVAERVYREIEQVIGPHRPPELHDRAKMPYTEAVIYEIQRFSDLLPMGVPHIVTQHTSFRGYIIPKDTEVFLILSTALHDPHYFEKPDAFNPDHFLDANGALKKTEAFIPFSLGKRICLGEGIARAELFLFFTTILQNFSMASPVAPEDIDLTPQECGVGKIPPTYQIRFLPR
assay info: CYP inhibition in human liver microsomes
condition details: human, human liver microsomes, probe bupropion

{"molecule": "CCc1cc(Cl)c(OC)c(N2CCN(CC(O)CCNC(=O)c3cc4ccccc4[nH]3)CC2)c1 (stereo not shown)", "activity at 20 min, 1 µM [%]": 91.2}
